B1: minF1; a variant is named by its letters at N, in order (parent)
chain: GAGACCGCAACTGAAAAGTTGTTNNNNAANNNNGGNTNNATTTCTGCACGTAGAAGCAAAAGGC

# Variants of: B1
# Experiment notes: fraction ligated after 30 min (ligated reads / total reads); higher = more ligase activity
# Details: with F1*subA RNA substrate (template-directed ligation), 42 °C
Everything with fraction ligated lower than 0.002 is n; everything else, including exactly 0.002, is y.

[in] Exam item: decide whether the reported fraction ligated for ATCAATGAGTT A28G G34T T37G is at least 0.002.
[out] y

[in] Next: TCAGAGGAGTA T23A
[out] n

[in] Moving on to ATAAGGATGTG A29T
[out] y

[in] What do you get for `TAGAGGATTGA` ?
[out] n

[in] Same lookup for `TCGATGATGTA` , please.
[out] y

[in] One more variant: TCAGATGGGTT G34T T37G A40G
[out] n

[in] Same question for TCAGTGGAGTG T23A please.
[out] y

[in] Another variant to check: TCAGATGGGTG G34T
[out] y

[in] Same for `ATCGATGTGTA`
[out] y

[in] Repeat for the following variant: TCAGTGGATGA T23A
[out] y

[in] Try this variant next: `ATAATGGTGTG`
[out] y

[in] Ok, now `ATAGATGAGTG`
[out] y

[in] And the next one, `ACAGAGGAGTA` ?
[out] y

[in] Queued: `ACAGAATGTGA`
[out] y

[in] Also, `ATCAAGGTGTG` please.
[out] y

[in] Also check TCAGATGGGTA T23A
[out] y

[in] For `ATCGAGGAGTG` then?
[out] y

[in] Continue with TAAAGGATTGA A29T
[out] n

[in] Queued: ATGAGGATGTA A29T
[out] y

[in] # repeat for CGAAGGATGTG T23A A29T
[out] y

[in] Same thing, different variant: ATCAAATGTGT A28G G35A T37G A40T
[out] n

[in] Record: ATCAAATGGTG A28G
[out] y

[in] Please do the same for `ACAATATGTGA` as well.
[out] y

[in] Please answer likewise for TCGATGGAGTA T23A G34T
[out] y

[in] Now the variant ATAAGGATGTA A29T
[out] y

[in] Okay, and `TCGATGATGTG` ?
[out] y

[in] Further, for `CAGATGGGTGA` ?
[out] y

[in] Could you do the same for `ATGATGGAGTG` , please?
[out] y

[in] Please give the result for ATCAAGGAGTA A28G G34T too.
[out] n

[in] Next entry: TCAGATGGGTT T23A G34T T37G
[out] n

[in] And for `ACAGATGAGTA` ?
[out] y

[in] Again, but for CAGATGGTGTG T23A
[out] y

[in] Another variant to check: ATCAATGTTGA A28G
[out] n

[in] # iterate: ATCATGGAGTT G34T T37G A40G
[out] n

[in] Again, but for `ATAGGGATTGA`
[out] y

[in] Then this variant: `TCAGATATGTA`
[out] y

[in] Moving on to `TCAGTGGAGTG`
[out] y

[in] Repeat with `TCAGTGATGTG`
[out] y

[in] Field entry: CAGATGGAGTT T23A G34T T37G A40G
[out] y

[in] What do you have for ATCAAAGGGTT A28G G34T T37G A40G ?
[out] n

[in] How about this variant: TAGATATGTGA T23A
[out] y

[in] Now the variant `ATGAGATGTGA`
[out] y

[in] Check ATCAATGAGTT A28G G34T T37G A40G too.
[out] n

[in] Item: `AAGATGATGTG`
[out] y

[in] Request: AAGATGGAGTT G34T T37G
[out] n

[in] Next up: ATCAAGGAGTA A28G
[out] y

[in] Now the same for `TCGATGGTTGA`
[out] y

[in] Note, next up: CAGAGGTGTGA A29T
[out] y

[in] Now try `TCGATGTGTGA` .
[out] y

[in] Next up: ACGAGGATGTA A29T
[out] y

[in] Lookup `ATCGGGATGTA`
[out] y

[in] Ok, now TCAGATGAGTT T23A G34T T37G
[out] n

[in] Check TCAGAGGTTGA T23A too.
[out] n

[in] Follow-up item: ATGATGGAGTT G34T T37G
[out] n

[in] // next record `ATCGATATTGA`
[out] n

[in] Proceed to `TCAGATGAGTA`
[out] y

[in] What about this variant? TCAGTGATGTA T23A
[out] n

[in] // repeat for TCAATGGTTGA T23A and report
[out] y

[in] Let us now turn to AAAAGATGTGA T23C A28T A29G
[out] y

[in] Now consider AGAAGGAGTGA A29T and answer again.
[out] y

[in] Lookup CAGATGGAGTA T23A
[out] n

[in] Next variant up: `ATAGAGGAGTA`
[out] y

[in] Field entry: `ATCAAGATTGA`
[out] y

[in] What about this variant? `ATAATGGATGA`
[out] n

[in] Next entry: `AAGATGGTTGA`
[out] n

[in] Request: AGAAGGAGTGA T23C A29T
[out] n

The origin of these recorded values is the supplement of paper PMC6755084.
